- TARGET SYSTEM: RIPK2 (Homo sapiens)
- Construct: purchased Reaction Biology Europe GmbH
- Sequence (O43353 whole entry): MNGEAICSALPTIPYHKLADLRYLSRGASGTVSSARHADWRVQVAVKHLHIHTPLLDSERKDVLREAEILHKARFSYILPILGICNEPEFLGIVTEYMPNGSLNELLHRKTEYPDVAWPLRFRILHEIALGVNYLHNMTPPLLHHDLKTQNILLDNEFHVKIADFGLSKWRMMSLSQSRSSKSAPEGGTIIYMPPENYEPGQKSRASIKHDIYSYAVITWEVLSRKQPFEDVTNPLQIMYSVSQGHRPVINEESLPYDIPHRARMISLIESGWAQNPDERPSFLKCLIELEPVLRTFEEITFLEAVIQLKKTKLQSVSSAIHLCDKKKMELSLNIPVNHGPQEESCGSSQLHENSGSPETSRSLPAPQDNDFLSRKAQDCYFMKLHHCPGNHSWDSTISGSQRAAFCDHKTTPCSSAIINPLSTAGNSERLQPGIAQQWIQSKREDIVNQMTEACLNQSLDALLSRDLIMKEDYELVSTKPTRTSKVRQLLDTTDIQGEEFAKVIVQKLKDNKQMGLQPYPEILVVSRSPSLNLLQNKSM
- ASSAY DETAILS: PanQinase kinase panel: RIPK2
- Format: biochemical
- PROTOCOL CONDITIONS: read-out: INHIBITORY EFFECT @ 1 uM: RIPK2
MEASURED PROPERTY: inhibition at 1 µM

COMPOUND: Cc1cccnc1[C@H]1CCC[C@@H](c2ncccc2C)N1CCN1CCN(C(=O)c2ccc(-c3cc4c(-c5cccc(NC(=O)c6ccccc6)c5C)ncnc4[nH]3)cc2)CC1 [Compound I-10]
RESULT: < 50%

COMPOUND: COc1ccc(F)cc1C(=O)NCc1ccc(-c2nn([C@@H](C)C(F)(F)F)c(N)c2C(N)=O)cc1 [LOXO-305, pirtobrutinib]
RESULT: < 50%

COMPOUND: C=CC(=O)N1CCC([C@@H]2CCNc3c(C(N)=O)c(-c4ccc(Oc5ccccc5)cc4)nn32)CC1 [Zanubrutinib]
RESULT: 50 to 69%

COMPOUND: O=C(c1ccc(Oc2ccccc2)cc1Cl)c1c[nH]c2ncnc(N[C@@H]3CC[C@@H](CO)OC3)c12 [ARQ-531]
RESULT: 90 to 100%

Data provenance: patent US20250326753A1
